Test system: Parainfluenza-3 virus
Protocol: Virus-induced cytopathicity, parainfluenza-3 virus in Vero cells
Type: cell-based
Experimental parameters: read-out: EC50 Parainfluenza-3 virus
Recorded EC50 for the following molecules

Chemical string | Tested target | EC50
Nc1nc2c(sc3ncn([C@H]4C[C@H](O)[C@@H](CO)O4)c32)c(=O)[nH]1 | Parainfluenza-3 virus | > 100 µM

# input Need EC50, item Nc1ncnc2c1sc1ncn([C@H]3C[C@H](O)[C@@H](CO)O3)c12
# output > 100 µM
